- assaySystem: T1, hFc-hROR1 (extracellular domain of human ROR1 fused to the Fc domain of human IgG1) (human, UniProt Q01973 30-406)
- T1 construct: extracellular domain; also called hFc-ROR1; not shown: Fc domain of human IgG1
- T1 sequence (Q01973 30-406): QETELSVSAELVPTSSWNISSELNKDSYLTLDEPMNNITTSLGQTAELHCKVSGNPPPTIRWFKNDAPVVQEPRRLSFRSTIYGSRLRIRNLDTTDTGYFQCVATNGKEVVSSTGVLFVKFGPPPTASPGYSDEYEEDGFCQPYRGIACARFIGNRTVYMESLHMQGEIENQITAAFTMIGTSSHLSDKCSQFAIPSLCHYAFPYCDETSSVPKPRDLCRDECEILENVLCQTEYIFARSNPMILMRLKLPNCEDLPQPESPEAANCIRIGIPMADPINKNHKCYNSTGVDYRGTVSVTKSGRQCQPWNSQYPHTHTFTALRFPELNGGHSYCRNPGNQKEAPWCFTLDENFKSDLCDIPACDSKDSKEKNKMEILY
- protocolSummary: SPR (Biacore X100); hFc-hROR1 captured by anti-human Fcγ antibody on CM5; Fab as analyte; 1:1 Langmuir fit

binder	Kd
ERR1-409 chimeric rabbit/human Fab (Fab, V domains shown, Chimeric rabbit/human Fab with His tag, expressed in E. coli (pET11a); lambda light chain) VH: QEQLVESGGRLVTPGGSLTLTCTASGFSLSSYYMGWVRQAPGKGLEWIGTIYGGSGSTWYASWVKGRFTISKTSTAVDLKITSLTTEDTATYFCARSYPGWTTEPYFDIWGPGTLVTVSS VL: QFVLTQPQSVSGSLGQTVSISCNRDSGNIEDYYVHWYQQHPGKAPTTVIYNDDQRPSGVPDRFSGSIDSTSNSASLTITGLLAEDEADYYCLSSDSSAYVFGGGTQLTVTG	281 nM
